# Assay remarks: self-splicing fitness, log relative to wild type (ln ratio); higher = more splicing; Tetrahymena group I intron in knt gene, E. coli kanamycin selection, DiMSum; sequences stand for … in CUCUCU…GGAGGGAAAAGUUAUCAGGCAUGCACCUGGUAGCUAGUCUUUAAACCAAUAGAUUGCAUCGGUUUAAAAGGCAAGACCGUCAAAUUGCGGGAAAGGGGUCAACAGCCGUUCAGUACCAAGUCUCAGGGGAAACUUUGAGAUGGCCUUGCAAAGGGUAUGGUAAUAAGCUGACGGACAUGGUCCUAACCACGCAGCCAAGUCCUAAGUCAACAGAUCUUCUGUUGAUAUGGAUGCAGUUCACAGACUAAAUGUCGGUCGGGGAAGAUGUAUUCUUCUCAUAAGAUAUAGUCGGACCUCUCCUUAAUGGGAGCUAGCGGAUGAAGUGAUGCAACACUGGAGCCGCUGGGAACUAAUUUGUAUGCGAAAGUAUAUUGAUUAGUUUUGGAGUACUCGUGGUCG;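 further: selection with 25 µg/mL kanamycin versus none on LB agar overnight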
# Condition set: 37 °C
Lab note: class by self-splicing fitness (ln), see I = under -2, II = from -2 up to -0.8, III = -0.8 and over

Monomer sequence | Class assignment
UUCGAGCAAUAUUACGGACU | I
AACGAGCAAUAUUACGCUAC | II
CACUAGCAAUAUUACGGGUC | I

Task: Looking at UACAAGCAAUAUUACGUCGC , which class would you pick?
Result: I

Task: Looking at CGCUAGCAAUAUUACGUGAU , which class would you pick?
Result: I

Task: Looking at CGAUAGCAAUAUUACGCGGU , which class would you pick?
Result: II

Task: Looking at CUAUAGCAAUAUUACGUGUC , which class would you pick?
Result: I

Task: Looking at CCUCAGCAAUAUUACGUCCG , which class would you pick?
Result: III

Task: Looking at UCUAAGCAAUAUUACGACCA , which class would you pick?
Result: III

====

Provide the reported self-splicing fitness (ln) of each item.
# Assay remarks: self-splicing fitness, log relative to wild type (ln ratio); higher = more splicing; Tetrahymena group I intron in knt gene, E. coli kanamycin selection, DiMSum; sequences stand for … in CUCUCU…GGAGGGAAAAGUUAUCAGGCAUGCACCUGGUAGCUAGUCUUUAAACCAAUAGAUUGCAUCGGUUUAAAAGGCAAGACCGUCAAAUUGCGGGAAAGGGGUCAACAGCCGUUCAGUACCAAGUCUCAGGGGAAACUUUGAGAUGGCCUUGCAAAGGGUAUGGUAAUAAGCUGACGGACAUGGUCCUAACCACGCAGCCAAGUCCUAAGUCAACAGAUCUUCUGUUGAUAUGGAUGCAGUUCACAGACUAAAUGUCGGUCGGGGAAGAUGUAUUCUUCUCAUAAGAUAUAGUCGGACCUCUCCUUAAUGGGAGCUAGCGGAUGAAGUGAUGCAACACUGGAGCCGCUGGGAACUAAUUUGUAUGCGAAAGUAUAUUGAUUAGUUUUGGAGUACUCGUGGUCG
# Condition set: 37 °C

# count of solved cases: 7
Monomer sequence | self-splicing fitness (ln)
UGUGAGCAAUAUUACGGGGC | -2.25
GGUCAGCAAUAUUACGGUCG | 0.661
AACAAGCAAUAUUACGACCU | 0.125
AAUAAGCAAUAUUACGUUCA | -0.348
UCGCAGCAAUAUUACGCGUA | -0.123
AUAAAGCAAUAUUACGAUCA | 0.203
UUCCAGCAAUAUUACGAAGC | -1.92

Measured self-splicing fitness (ln) of UCAGAGCAAUAUUACGUGGA : -0.107
